The entries below are paired with their reported pIC50.
biological target: E. coli MurE (Escherichia coli); assay: Malachite green inhibition assay, MurE; type: biochemical; details: Table 1; read-out: MurE IC50
Sequence (P22188 whole entry): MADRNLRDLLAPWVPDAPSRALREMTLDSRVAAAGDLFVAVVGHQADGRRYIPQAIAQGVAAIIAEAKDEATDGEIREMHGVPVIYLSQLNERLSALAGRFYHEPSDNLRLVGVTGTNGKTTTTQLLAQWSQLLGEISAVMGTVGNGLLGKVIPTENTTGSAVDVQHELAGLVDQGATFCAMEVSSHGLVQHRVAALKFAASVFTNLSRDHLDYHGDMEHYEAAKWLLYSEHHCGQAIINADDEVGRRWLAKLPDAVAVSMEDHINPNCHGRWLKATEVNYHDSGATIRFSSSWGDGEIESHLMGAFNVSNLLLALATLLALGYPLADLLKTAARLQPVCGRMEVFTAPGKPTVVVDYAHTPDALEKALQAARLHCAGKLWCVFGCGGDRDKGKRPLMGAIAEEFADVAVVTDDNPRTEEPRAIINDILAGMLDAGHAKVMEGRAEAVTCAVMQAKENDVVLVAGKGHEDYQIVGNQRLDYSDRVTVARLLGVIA
Formally, pIC50 is defined as -log10 of the concentration c, with c in mol/L.

Answered cases to consult:
| compound | pIC50 |
| --- | --- |
| Nc1ccc(C#Cc2cncnc2Nc2ccc(OCc3cccc(F)c3)c(Cl)c2)cc1 | 3.80 |
| CCCN1CCCC(c2ccc(Nc3nc(Nc4cc(F)ccc4C(N)=O)c4cc[nH]c4n3)c(OC)c2)C1 (stereo not drawn) | 4.24 |

State its pIC50 for this compound: `N#Cc1ccc(Oc2nccc(-c3c(-c4ccc(F)cc4)ncn3C3CCNCC3)n2)cc1`
3.86

----------
target: E. coli MurC (Escherichia coli, UniProt P17952); experiment: Malachite green inhibition assay, MurC; format: biochemical; settings: 0.25 h, Table S1, PKIS screening; read-out: RA [%] at 100 µM MurC
Sequence (P17952 whole entry): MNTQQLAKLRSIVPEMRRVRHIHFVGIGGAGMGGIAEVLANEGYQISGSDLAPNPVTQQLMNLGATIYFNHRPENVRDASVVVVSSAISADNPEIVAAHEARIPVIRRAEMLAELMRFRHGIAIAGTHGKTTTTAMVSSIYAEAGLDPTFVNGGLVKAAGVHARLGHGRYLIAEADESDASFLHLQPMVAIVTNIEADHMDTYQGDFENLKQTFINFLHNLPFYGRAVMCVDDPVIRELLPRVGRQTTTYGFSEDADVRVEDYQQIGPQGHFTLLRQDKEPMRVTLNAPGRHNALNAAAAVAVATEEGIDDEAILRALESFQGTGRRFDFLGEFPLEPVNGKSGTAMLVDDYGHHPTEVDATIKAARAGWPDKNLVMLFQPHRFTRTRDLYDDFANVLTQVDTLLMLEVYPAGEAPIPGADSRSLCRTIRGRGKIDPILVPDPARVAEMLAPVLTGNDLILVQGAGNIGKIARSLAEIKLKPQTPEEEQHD
readout-type: remaining activity at 100 µM (%)
Give just the number in %; leave the unit off.

Answered cases to consult:
| molecule | target-desc | readout-type | quantitative-result |
| --- | --- | --- | --- |
| CCc1cccc(NC(=O)Nc2ccc(Oc3ccc4nc(NC(=O)OC)[nH]c4c3)cc2)c1 [GW673715X] | E. coli MurC (Escherichia coli, UniProt P17952) | remaining activity at 100 µM | 79 |
| CC1=C(C(=O)Nc2ccc3[nH]ncc3c2)C(c2ccc(F)cc2)NC(c2ccc(C(F)(F)F)nc2)=N1 (stereo not shown) [GSK317354A] | E. coli MurC (Escherichia coli, UniProt P17952) | remaining activity at 100 µM | 68 |
| CN(C)c1ccc2c(c1)/C(=C/Nc1ccc(S(N)(=O)=O)cc1)C(=O)N2 [GW416469X] | E. coli MurC (Escherichia coli, UniProt P17952) | remaining activity at 100 µM | 76 |

Now consider the entry below.
State its remaining activity at 100 µM for this molecule: CS(=O)(=O)Nc1ccc(N/C=C2\C(=O)Nc3ccccc32)cc1 [GW278681X]
71

----------
molecular target: E. coli MurD (Escherichia coli, UniProt P14900); experiment: biochemical; details: 0.25 h, Table S1, PKIS screening; read-out: RA [%] at 100 µM MurD
Sequence (P14900 whole entry): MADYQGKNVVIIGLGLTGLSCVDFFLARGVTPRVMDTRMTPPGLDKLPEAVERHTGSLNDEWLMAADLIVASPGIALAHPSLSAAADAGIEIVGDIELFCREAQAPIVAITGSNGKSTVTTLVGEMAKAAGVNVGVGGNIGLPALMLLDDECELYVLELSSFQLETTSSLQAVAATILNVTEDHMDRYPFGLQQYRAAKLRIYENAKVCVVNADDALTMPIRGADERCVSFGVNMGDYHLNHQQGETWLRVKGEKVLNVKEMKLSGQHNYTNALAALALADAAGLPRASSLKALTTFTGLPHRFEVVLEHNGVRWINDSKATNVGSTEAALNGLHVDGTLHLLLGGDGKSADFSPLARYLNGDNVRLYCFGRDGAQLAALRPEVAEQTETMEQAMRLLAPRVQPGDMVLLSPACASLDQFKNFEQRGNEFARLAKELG
readout-type: remaining activity at 100 µM (%)
Give just the number in %; leave the unit off.

Answered cases to consult:
| compound | readout-type | reading-unit | quantitative-result |
| --- | --- | --- | --- |
| Fc1cccc(COc2ccc(Nc3ncnc4sc(-c5cccs5)cc34)cc2Cl)c1 [GW684626B] | remaining activity at 100 µM | % | 75 |
| CCc1ccc(Oc2nccc(-c3c(-c4ccc(F)cc4)ncn3C3CCNCC3)n2)cc1 [SB-242719] | remaining activity at 100 µM | % | 87 |
| O=C(Nc1n[nH]c2cc(-c3ccc(F)cc3)ccc12)C1CC1 [SB-735467] | remaining activity at 100 µM | % | 75 |
| COc1ccc(-c2coc3ncnc(N)c23)cc1 [GW642125X] | remaining activity at 100 µM | % | 83 |
| CS(=O)(=O)CCNCc1ccc(-c2ccc3ncnc(Nc4ccc(OCc5cccc(F)c5)c(C(F)(F)F)c4)c3c2)o1 [GW576484X] | remaining activity at 100 µM | % | 55 |
| CS(=O)(=O)Nc1ccc(N/C=C2\C(=O)Nc3ccccc32)cc1 [GW278681X] | remaining activity at 100 µM | % | 89 |
| Nc1nonc1-c1nc2cnccc2n1C1CC1 [SB-736302] | remaining activity at 100 µM | % | 100 |
| COc1cc(Nc2ncc(-c3ccccc3)o2)cc(OC)c1OC [GW627512B] | remaining activity at 100 µM | % | 72 |

State its remaining activity at 100 µM for this compound: Cc1nnc(-c2ccc(C)c(-c3ccc(C(=O)Nc4cccc(C#N)c4)cc3)c2)o1 [GW607117X]
100

----------
Biological target: E. coli MurC (Escherichia coli)
Experiment: Malachite green inhibition assay, MurC
Type: biochemical
Details: 0.25 h, Table S1, PKIS screening; read-out: RA [%] at 100 µM MurC
Description: Inhibition of the Mur ligases was determined using the malachite green assay, with slight modifications. In all cases, the final concentration of DMSO was 5% (v/v). After incubation for 15 min at 37 °C, the enzyme reaction was terminated by addition of 100 µM Biomol green reagent, and the absorbance was measured at 650 nm after 5 min. […] Residual activities were calculated with respect to control assays without the tested compounds, but with the 5% DMSO carrier. […]
readout-type: remaining activity at 100 µM (%)
Give just the number in %; leave the unit off.

Answered cases to consult:
| compound | readout-type | reading-unit | quantitative-result |
| --- | --- | --- | --- |
| NS(=O)(=O)c1ccc(NN=C2C(=O)Nc3cccc(CCc4ccncc4)c32)cc1 [GW352430A] | remaining activity at 100 µM | % | 64 |
| CC(C)c1ccc2c(c1)NC(=O)C2=NNc1ccc(S(N)(=O)=O)cc1 [GW300653X] | remaining activity at 100 µM | % | 100 |
| COc1ccccc1Nc1ncc(-c2ccccc2)o1 [GW577921A] | remaining activity at 100 µM | % | 71 |
| NC(=O)c1cccc(Nc2nccc(Nc3cccc4[nH]ncc34)n2)c1 [GW782612X] | remaining activity at 100 µM | % | 86 |

Now consider the entry below.
State its remaining activity at 100 µM for this compound: COc1c(C(N)=O)cc(-c2ccc(Cl)cc2)cc1-c1ccc(S(N)(=O)=O)cc1 [GSK711701A]
100

----------
biological target: E. coli MurD (Escherichia coli); test: biochemical; settings: 0.25 h, Table S1, PKIS screening; read-out: RA [%] at 100 µM MurD
readout-type: remaining activity at 100 µM (%)
Give just the number in %; leave the unit off.

Answered cases to consult:
| compound | reading-unit | quantitative-result |
| --- | --- | --- |
| COc1ccc(Nc2ncc(-c3ccccc3)o2)cc1OC [GW575533A] | % | 93 |
| CC1=C(C(=O)Nc2ccc3[nH]ncc3c2)C(c2ccc(Cl)c(Cl)c2)CC(=O)N1 (stereo not shown) [GSK299115A] | % | 96 |
| CCOc1nccc2c1nc(-c1nonc1N)n2CC [SB-737198] | % | 100 |
| CCn1c(-c2nonc2N)nc2ccncc21 [SB-738561] | % | 58 |
| CS(=O)(=O)Nc1cccc(-c2ccc3c(NC(=O)C4CC4)n[nH]c3c2)c1 [SB-742864] | % | 88 |
| NS(=O)(=O)c1cccc(-c2ccc3c(NC(=O)C4CC4)n[nH]c3c2)c1 [SB-741905] | % | 98 |

State its remaining activity at 100 µM for this compound: N#Cc1cccc(Nc2ncc(-c3ccccc3)o2)c1 [GW627834A]
75

----------
biological target: E. coli MurF (Escherichia coli, UniProt P11880); assay: biochemical; settings: 0.25 h, Table S1, PKIS screening; read-out: RA [%] at 100 µM MurF
Sequence (P11880 whole entry): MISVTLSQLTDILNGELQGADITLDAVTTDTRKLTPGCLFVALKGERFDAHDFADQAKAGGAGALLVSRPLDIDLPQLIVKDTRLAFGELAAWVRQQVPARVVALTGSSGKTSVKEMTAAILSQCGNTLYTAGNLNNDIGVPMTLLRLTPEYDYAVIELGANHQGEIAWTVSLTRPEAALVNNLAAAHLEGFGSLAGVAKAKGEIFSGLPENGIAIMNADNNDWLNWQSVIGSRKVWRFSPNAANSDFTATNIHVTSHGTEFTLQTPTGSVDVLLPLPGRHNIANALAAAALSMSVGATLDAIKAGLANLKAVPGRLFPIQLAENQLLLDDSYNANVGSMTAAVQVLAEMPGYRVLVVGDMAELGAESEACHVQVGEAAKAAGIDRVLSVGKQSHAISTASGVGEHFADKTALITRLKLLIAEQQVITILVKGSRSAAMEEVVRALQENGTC
readout-type: remaining activity at 100 µM (%)
Give just the number in %; leave the unit off.

| compound | readout-type | quantitative-result |
| --- | --- | --- |
| COC(=O)c1ccc2c(c1)C(=Cc1cc(Br)c(O)c(Br)c1)C(=O)N2 [GW405841X] | remaining activity at 100 µM | 75 |
| Cc1nnc(-c2ccc(C)c(-c3ccc(C(=O)NCc4ccc(Cl)cc4)cc3)c2)o1 [GW708893X] | remaining activity at 100 µM | 94 |
| CC1=C(C(=O)Nc2ccc3[nH]ncc3c2)C(c2ccc(F)cc2)NC(c2ccc(C(F)(F)F)nc2)=N1 (centres unmarked) [GSK317354A] | remaining activity at 100 µM | 96 |
| COC(=O)Nc1nc2ccc(Oc3ccc(NC(=O)Nc4cccc(Cl)c4)cc3)cc2[nH]1 [GW589961A] | remaining activity at 100 µM | 83 |
| CS(=O)(=O)CCNCc1ccc(-c2ccc3ncnc(Nc4ccc(OCc5ccccc5)cc4)c3c2)o1 [GW458787A] | remaining activity at 100 µM | 66 |

Output reported remaining activity at 100 µM of the compound CN1CCN(CCCNc2nc3ccc(Oc4ccc(NC(=O)Nc5cc(C(F)(F)F)ccc5F)cc4)cc3[nH]2)CC1 [GW700494A] on E. coli MurF (Escherichia coli, UniProt P11880).
95

Output reported remaining activity at 100 µM of the compound Nc1ccc(C#Cc2cncnc2Nc2ccc(OCc3cccc(F)c3)c(Cl)c2)cc1 [Compound 2] on E. coli MurF (Escherichia coli, UniProt P11880).
30

Output reported remaining activity at 100 µM of the compound CC(C)c1ccc2c(c1)NC(=O)C2=NNc1ccc(S(N)(=O)=O)cc1 [GW300653X] on E. coli MurF (Escherichia coli, UniProt P11880).
75

Where do the numbers come from? From paper PMC6522912.
